All values here come from patent EP2951180B1.

# MEASUREMENT TARGET: HDM2 (Homo sapiens, UniProt Q00987)
# Construct: Thioredoxin (N); made in house; host or cells: E. coli strain BL21(DE3)Rosetta
# Sequence (Q00987 17-125): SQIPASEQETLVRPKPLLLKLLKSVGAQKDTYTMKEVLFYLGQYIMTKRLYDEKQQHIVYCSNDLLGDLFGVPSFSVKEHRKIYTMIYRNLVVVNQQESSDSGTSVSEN
# MEASUREMENT NOTES: HDM2 FRET assay (inhibition of binding of FITC labeled p53-pocket peptide to HDM2)
# EXPERIMENTAL SETUP: Table 11; read-out: FRET IC50
Listing of entries alongside the reported pIC50.
To interpret pIC50, take it as minus log10 of a concentration measured in moles per litre.

Some entries whose results are on file:
COMPOUND	pIC50
CC(C)C[C@H]1CCCCN1c1nc2nc(-c3noc(=O)[nH]3)nc(N[C@H](C)C3CCC3)c2n1C[C@H]1CC[C@H](C)CC1	7.94
C[C@@H](Nc1nc(C(=O)O)nc2nc(N3CCCC4CCCCC43)n(C[C@H]3CC[C@H](C)CC3)c12)C1CCC1 (stereo partly drawn) [Example 11.20]	8.87
C[C@@H](Nc1nc(-c2noc(=O)[nH]2)nc2nc(N3CC(C)(O)C3)n(C[C@H]3CC[C@H](C)CC3)c12)C1CCC1	7.44
C[C@@H](Nc1nc(C(=O)O)nc2nc(N3CCCC[C@H]3c3ccccc3)n(C[C@H]3CC[C@H](C)CC3)c12)C1CCC1	9.42
C[C@@H](Nc1nc(-c2noc(=O)[nH]2)nc2nc(N3CCCC3c3ccccc3)n(C[C@H]3CC[C@H](C)CC3)c12)C1CCC1 (single isomer, unassigned) [Example 11.135]	8.68
C[C@@H](Nc1nc(-c2noc(=O)[nH]2)nc2nc(N3CCOCC3(C)C)n(C[C@H]3CC[C@H](C)CC3)c12)C1CCC1	8.60
C[C@@H](Nc1nc(-c2noc(=O)[nH]2)nc2nc(N3CCOC[C@H]3c3ccccc3)n(C[C@H]3CC[C@H](C)CC3)c12)C(F)(F)F	8.33
Cc1csc(CN(C)c2nc3nc(-c4noc(=O)[nH]4)nc(N[C@H](C)C4CCC4)c3n2C[C@H]2CC[C@H](C)CC2)n1	8.09
CCCN(C)c1nc2nc(-c3noc(=O)[nH]3)nc(N[C@H](C)C3CCC3)c2n1C[C@H]1CC[C@H](C)CC1	8.00
C[C@@H](Nc1nc(-c2noc(=O)[nH]2)nc2nc(N(C)[C@@H]3CCCC[C@@H]3O)n(C[C@H]3CC[C@H](C)CC3)c12)C1CCC1 (stereo in doubt) [Example 11.132]	7.59

Fill in the blank: the reported pIC50 of COC(C)(C)C1CCCN1c1nc2nc(-c3noc(=O)[nH]3)nc(N[C@H](C)C3CCC3)c2n1C[C@H]1CC[C@H](C)CC1 (stereo partly drawn) is ____.
9.29

Recorded pIC50 for Cc1nonc1C1CCCN1c1nc2nc(-c3noc(=O)[nH]3)nc(N[C@H](C)C3CCC3)c2n1C[C@H]1CC[C@H](C)CC1 (stereo partly drawn) , please?
8.80

====

Here the recorded pIC50 is given for each entry.
# MEASUREMENT TARGET: HDM2 (Homo sapiens)
# Construct: Thioredoxin (N); made in house; host or cells: E. coli strain BL21(DE3)Rosetta
# MEASUREMENT NOTES: FRET assay (HDM2 inhibition; method not described in this part)
# Format: binding
# EXPERIMENTAL SETUP: Table 1
pIC50 here is simply -log10 of the concentration when that concentration is written in mol/L.

I'd like to know its pIC50. The compound in question is `CC(C)c1ccnc(-c2nc3nc(C(=O)O)nc(N[C@@H](C)C4CCC4)c3n2Cc2ccc(C(F)(F)F)cc2)c1`
6.89

# query: pIC50 of entry `C[C@@H](Nc1nc(C(=O)O)nc2nc(-c3ncccc3-c3ccccc3)n(Cc3ccc(C(F)(F)F)cc3)c12)C1CCC1`
8.21

Which pIC50 value is on record for `CC(C)c1ccc(OC(F)(F)F)c(-c2nc3nc(C(=O)O)nc(N[C@H](C)C4CCC4)c3n2Cc2ccc(OC(F)(F)F)c(F)c2)c1` ?
7.63

Please give the measured pIC50 for this compound: `COc1c(C)cc(-c2nc3nc(C(=O)O)nc(N[C@H](C)C4CCC4)c3n2Cc2ccc(C(F)(F)F)cc2)cc1C`
7.25

Give the measured pIC50 of `C[C@@H](Nc1nc(C(=O)O)nc2nc(-c3ncccc3C(F)(F)F)n(Cc3ccc(C(F)(F)F)cc3)c12)C1CCC1` .
7.32
